Assay: NCI Yeast Anticancer Drug Screen. Data for the mec2-1 strain (AID 157)
Conditions: S. cerevisiae mec2-1 strain, at 5.0 µM (retest, dose inferred, filed as 0.5), active compounds read high
Method: Growth inhibition of yeast strains with defined genetic alterations is measured as a screen for potential anti-cancer activity. Selected strains with alterations in DNA damage repair or cell cycle control were exposed to compounds and growth inhibition was measured relative to vehicle treated controls. The strain used in this assay is mec2-1
About 79,000 compounds went through this panel and 15% of them were active in at least one assay; those are over-represented in the sample as a whole.
Entries annotated with measured growth inhibition
Measurement type: growth inhibition (%)

compound=CC(C)(C)c1ccc(O)c(C(c2ccc([N+](=O)[O-])cc2)c2cc(C(C)(C)C)ccc2O)c1 measurement_type="growth inhibition" val=7
compound=COc1ccc(/C=C(\NC(=O)c2ccccc2)C(=O)NN(C)c2ccnc3cc(Cl)ccc23)cc1OC measurement_type="growth inhibition" val=-12
compound=CC[C@@]1(OC(=O)CN(C)C)C(=O)OCc2c1cc1n(c2=O)Cc2cc3c(N)cccc3nc2-1 measurement_type="growth inhibition" val=22
compound=COc1cc2c(cc1C[N+](C)(C)CSc1ccccc1)-c1ccccc1CC2 measurement_type="growth inhibition" val=3
compound=OCCNCCOc1ccc(/C(=C(/Cl)c2ccccc2)c2ccccc2)cc1 measurement_type="growth inhibition" val=3
compound="CC1=CCC(C(C)(C)c2ccc(O)cc2)CC1 (stereo unspecified)" measurement_type="growth inhibition" val=52
compound="CC1(C)C(C=O)=CCC1CC(N)=O (stereo unspecified)" measurement_type="growth inhibition" val=4
compound=Cc1ccc(I)cc1N=C=S measurement_type="growth inhibition" val=48
compound=CN(C)CCNc1cccc2sc3ccc(O)cc3c(=O)c12 measurement_type="growth inhibition" val=-1
compound="Nc1nc(N)c2c(n1)CCC(S(=O)(=O)c1ccc3ccccc3c1)C2 (stereo unspecified)" measurement_type="growth inhibition" val=83
compound=CC(C)c1[nH]nc(C(N)=O)c1N=NN(C)C measurement_type="growth inhibition" val=-46

---

assay: NCI Yeast Anticancer Drug Screen. Data for the sgs1 strain (AID 173);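 note: 0% = growth of vehicle-only control cultures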; settings: S. cerevisiae sgs1 mutant, at 1.2 µM, active compounds read high
The panel holds about 79,000 compounds, 15% with a hit somewhere; the sample as a whole holds those more often.
Measurement type: growth inhibition (%)

molecule=Clc1c(Cl)c(Cl)c2n[nH]nc2c1Cl measurement_type="growth inhibition" val=-40
molecule=O=[N+]([O-])c1cccc2nc3ccccc3c(NCCc3cccc[n+]3[O-])c12 measurement_type="growth inhibition" val=43
molecule=c1ccc2c(c1)Cn1c-2nc2ccccc21 measurement_type="growth inhibition" val=-7
molecule=Nc1ccc2c(=S)c3ccccc3[nH]c2c1 measurement_type="growth inhibition" val=17
molecule=Clc1cc(Cc2ccc(N=C/C=C/c3ccccc3)c(Cl)c2)ccc1N=C/C=C\c1ccccc1 measurement_type="growth inhibition" val=12
molecule=CCNc1ccc2c(c1)C(=O)N(OS(C)(=O)=O)C2=O measurement_type="growth inhibition" val=2
molecule=O=Nn1c2ccccc2c2cc([N+](=O)[O-])ccc21 measurement_type="growth inhibition" val=-8
molecule="S=C(S)NCC1CCC(CNC(=S)S)CC1 (configuration not stated)" measurement_type="growth inhibition" val=-3
molecule=COc1cc(/C=C/c2sc3ccccc3[n+]2C)ccc1N(C)C measurement_type="growth inhibition" val=0
molecule=Cc1cccc(/C=N\NC(=S)N2CCCCC2)n1 measurement_type="growth inhibition" val=2
molecule=COc1ccc(N)c2c1C(=O)c1ccccc1C2=O measurement_type="growth inhibition" val=-6
molecule=Cc1cc(Cl)nc2nc(Cl)c(N)cc12 measurement_type="growth inhibition" val=-2
